# Tested on: M14 melanoma
# test.method.notes: NCI-60 one-dose screen, 48 h
# particulars: 10 µM unless noted
Compounds without any hit were thinned out: in the full panel of roughly 83,000, 20% have a hit. Active and inactive are the calls of the source. Rule for the calls: active = growth percent below 10; inactive = the rest.
Outcomes: yes (1) (active), no (0) (inactive)

>>> class_assignment("Clc1ccccc1Nc1nnc(-c2c[nH]c3ccccc23)o1")
"no (0)"
>>> class_assignment("S=C(NCCc1ccccc1)Nc1ccc(OCc2nc3ccc(Cl)cc3[nH]2)cc1")
"no (0)"
>>> class_assignment("Cc1ccc(C(=O)C[n+]2cccc3c4ccccc4ccc32)cc1")
"no (0)"
>>> class_assignment("COc1cc(CNC(=O)C[C@H](C)CCC=C(C)C)ccc1OCc1cn(-c2ccc(Cl)cc2Cl)nn1")
"no (0)"
>>> class_assignment("COc1cccc2nc(Nc3cccc(NC(=O)c4ccc(CN5CCN(C)CC5)c(C(F)(F)F)c4)c3)ccc12")
"yes (1)"
>>> class_assignment("O=C1N/C(=N\\c2nccs2)S/C1=C\\c1ccc([N+](=O)[O-])cc1")
"yes (1)"
>>> class_assignment("O=C(CSc1nnc(-c2ccc(-c3nc4ccc(Cl)cc4[nH]3)cc2)o1)Nc1ccccc1")
"yes (1)"

###

# System: SR leukemia
# test.method.notes: NCI-60 one-dose screen, 48 h (100 = growth as untreated, 0 = no growth, -100 = all killed)
# particulars: 10 µM unless noted
# Description: Growth inhibition of the SR human tumor cell line is measured as a screen for anti-cancer activity. Cells are grown in 96 well plates and exposed to the test compound for 48 hours. Compounds are tested at a single concentration, which is 10^-5 M for most compounds. The reported endpoint is percent growth (GI% or GIPRCNT), where numbers from 0 - 100% represent growth inhibition, and numbers from -100% - 0 represent cell death. For example, a value of 40 represents 60% growth inhibition. […]
About 83,000 compounds went through this panel and 20% of them were active in at least one assay; those are over-represented in the sample as a whole.
Please use class 1 whenever growth is not below 20%, and class 0 whenever it is.

>>> class_assignment("Nc1nn2c(-c3cc4cc(Br)ccc4oc3=O)ccnc2c1N=Nc1ccc(S(N)(=O)=O)cc1")
"class 1"
>>> class_assignment("NS(=O)(=O)c1ccc(N2N=C(c3ccc(NC(=O)Nc4ccccc4)cc3)CC2c2ccc(Br)cc2)cc1 (stereo not given)")
"class 0"
>>> class_assignment("Cc1ccc(C(=O)Nc2cc(-n3cnc(F)c3)cc(C(F)(F)F)c2)cc1C#Cc1cnc2cccnn12")
"class 0"
>>> class_assignment("Cc1ccc(Nc2nnc(-c3c[nH]c4ccccc34)o2)c(C)c1")
"class 0"
>>> class_assignment("Clc1ccccc1Nc1nnc(-c2c[nH]c3ccccc23)o1")
"class 0"

###

# Test system: SK-OV-3 ovarian
# test.method.notes: NCI-60 one-dose screen, 48 h (100 = growth as untreated, 0 = no growth, -100 = all killed)
# particulars: 10 µM unless noted
Compounds without any hit were thinned out: in the full panel of roughly 83,000, 20% have a hit.
measurement.kind: growth (%)

>>> data_value("C=CC(=O)N1CCN(c2ccc3nc4c(nc3c2C(F)(F)F)C(=O)c2ncccc2C4=O)CC1")
91.1
>>> data_value("Cc1ccc2c(c1)/C(=C/C(=O)c1cc3ccccc3oc1=O)C(=O)N2")
100
>>> data_value("CC[C@@]12CC(C(=O)OC)=C3Nc4cc5c(cc4[C@@]34CCN(C[C@H]3O[C@H]31)[C@@H]24)[C@@H]1[C@H](O5)[C@@H](O)[C@@]2(CC)CC(C(=O)OC)=C3Nc4cc(O)ccc4[C@@]34CCN1[C@@H]24")
-32.4
>>> data_value("FC(F)(F)CN1CCN(CCn2c(C(F)(F)F)cc3c(Cl)ncnc32)CC1")
71.4
>>> data_value("COc1c(B(O)O)cc(F)cc1-c1nc2ccc3[nH]ncc3c2c2c1COCC2")
82.8
>>> data_value("CN1CCN(C(=O)CCN(C(=O)Oc2cc3c(c4ccccc24)[C@H](CCl)CN3C(=O)c2cc3cc(OCCCN4CCC4)ccc3[nH]2)[C@H]2CCSSC2)CC1")
-12.4
>>> data_value("Nc1nn2c(-c3cc4cc(Br)ccc4oc3=O)ccnc2c1N=Nc1ccc(S(N)(=O)=O)cc1")
58.9
>>> data_value("Cc1ccc(Cl)cc1NC(=O)N/C(N)=N/c1nc2ccccc2s1")
-25.6
>>> data_value("COc1cc2cc(C(=O)N3C[C@@H](CCl)c4c3cc(OC(=O)N(C)CCSSCCN3CCOCC3)c3ccccc43)[nH]c2c(OC)c1OC")
-30

These entries and their values trace back to PubChem BioAssay (NCI).
